- tested target: GRID2IP_2, A4D2P6
- Sequence (A4D2P6 272-370): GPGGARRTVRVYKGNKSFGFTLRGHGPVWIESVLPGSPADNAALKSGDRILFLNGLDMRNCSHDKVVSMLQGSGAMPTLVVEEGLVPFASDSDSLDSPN
- measurement description: holdup assay
- Set-up: key: below the threshold = too weak to quantify, mostly under pKd 3.1 to 4
- experimental context: plain residues with an end cap or a label only (N-terminal biotin on a linker: ado-ado)
outcome measure: pKd

Use the examples below as a reference point.
[
  {
    "binder": "QKNRKAQEDL [CES3, Q6UWW8]",
    "pKd": "below the threshold"
  },
  {
    "binder": "LRSPRTPSEV [OR10G3, Q8NGC4]",
    "pKd": "below the threshold"
  },
  {
    "binder": "QSLNRMEYIV [JAG1, P78504]",
    "pKd": "below the threshold"
  },
  {
    "binder": "QGPVETESVV [SLC45A4, Q5BKX6]",
    "pKd": 3.55
  },
  {
    "binder": "ETQVTAETVI [TMEM225B, P0DP42]",
    "pKd": "below the threshold"
  }
]

The record that follows has no pKd shown yet.
Would you kindly share the measured pKd for QSPANIYYKV [EFNB1, P52799] ?
below the threshold
